- ASSAY SYSTEM: the molecule itself
- RUN DESCRIPTION: SAXS
MEASURED PARAMETER: stoichiometry N
Number only, no unit.

[ask] Could you share which stoichiometry N value was measured for PF0230 (ArsR transcription regulator) (natural protein) MTKRVKVITDPEVIKVMLEDTRRKILQLLRNREMTISQLSEILGKMPQTIYHHIEKLKEAGLVEVKRTEMKGNLVEKYYGRTADVFYINLYMGDEELRYLARSRLKTKLDIFKKLGYKFDEEELLNVMDRILEKEHEVKVEISKEIENVEDSLKEFSNEDIIHAIEWLAMARLAQDEEYIELVKKLGQILKR ?
[reply] 2

[ask] Follow-up entry: acetyl-CoA synthetase subunit (PF1787) (natural protein) MDRVAKAREIIEKAKAENRPLVEPEAKEILKLYGIPVPEFKVARNEEEAVKFSGEIGYPVVMKIVSPQIIHKSDAGGVKINIKNDEEAREAFRTIMQNARNYKPDADLWGVIIYRMLPLGREVIVGMIRDPQFGPAVMFGLGGIFVEILKDVSFRVAPITKEDALEMIREIKAYPILAGARGEKPVNIEALADIIVKVGELALELPEIKEIDINPIFAYEDSAIAVDARMIL
[reply] 3

[ask] Follow-up entry: PF1911 (ferredoxin NADP reductase) (natural protein) MYKILEKKEIAMRNTWYKVYAPHVAKKVQPGQFVIVRAFPNGERIPLTPVMWDREEGWIVLIVFTRGKTTMRMAVELKEGDSLLNVAGPLGTPVPMEKFGKILAIGAYTGIVEVYPIAKAWQEIGNDVTTLHVTFEPMVILKEELEKAVTRHIVEPVPLNPNQDFLANMKNVSQRLKEKVRELLESEDWDLVFMVGPVGDQKQVFEVVKEYGVPMKVDLHPIMVDGTGMCGACRVTVGGEVKFACVDGPEFDAYQVDWDELIHRVGFYAKLEKLALEKYMEELKAKGVI
[reply] 2

[ask] Follow-up entry: PF0939 (isopropylmalate dehydratase) (natural protein) MKARGRAWKYGDNIDTDVIIPARYLNTSDPKELAQHVLEDLDPEFRYKMKPGDIIVAGENFGCGSSREHAPLAIKAAGVSAVIAKSFARIFYRNAINIGLPILEAPEAVERIETGDEIEIDFSTGEIRNLTKGEVYHANPFPEFIMEIIKAGGLVEWAKRRLAK
[reply] 2
